# Method description: Pharmacokinetics after iv and oral administration, P‐S difference method, Mdr1a/1b(−/−) mice
# Type: in vivo
# Assay setup: male, FVB Mdr1a/1b(−/−), mouse, systemic plasma (abdominal vein), po, 1 mg/kg; read-out: AUC 0→∞ (AUCsys)
Counter-ions that a name gives are not always drawn.
Quantity name: AUC(0-inf)
Please state the number and follow it with the unit.

**Query** # return recorded AUC(0-inf) for input CC[C@@]1(O)C(=O)OCc2c1cc1n(c2=O)Cc2cc3c(CN(C)C)c(O)ccc3nc2-1 [topotecan, Topotecan HCl]
**Result** 0.358 µM·h

---

# Method description: Pharmacokinetics after iv and oral administration, P‐S difference method, wild‐type mice
# Assay type: in vivo
# Assay setup: male, FVB (wild-type), mouse, systemic plasma (abdominal vein), po, 1 mg/kg
Counter-ions that a name gives are not always drawn.
Quantity name: Cmax (µM)
I only need the number, in µM, no unit after it.

**Query** # return recorded Cmax for input CC[C@@]1(O)C(=O)OCc2c1cc1n(c2=O)Cc2cc3c(CN(C)C)c(O)ccc3nc2-1 [topotecan, Topotecan HCl]
**Result** 0.218

Values from paper PMC6968775
